tested on: Mus musculus; test: In vivo antimalarial activity against Plasmodium berghei NK173 in mice (Mus musculus) by intraperitoneal route at a concentration of 35.5 uM/kg at day 4; type: functional
Below, each entry is listed with its recorded Parasitemia.
Write the answer as a number in %, unit excluded.

# compound, Parasitemia [%]
measured = [
    ("CCOCC1=C(C(F)(F)F)O[C@@H]2OC3(C)CC[C@H]4[C@H](C)CC[C@@H]1[C@@]24OO3 (single isomer, unassigned)", 0.4),
    ("C[C@@H]1CC[C@H]2C(COCCO)=C(C(F)(F)F)O[C@@H]3OC4(C)CC[C@@H]1[C@]32OO4 (single isomer, unassigned)", 2),
    ("C[C@@H]1CC[C@H]2C(CN)=C(C(F)(F)F)O[C@@H]3OC4(C)CC[C@@H]1[C@]32OO4 (single isomer, unassigned)", 0.7),
]

IN: Given C[C@@H]1CC[C@H]2C(CNCCN)=C(C(F)(F)F)O[C@@H]3O[C@]4(C)CCC1[C@]32OO4 (some centres undefined) , state its recorded Parasitemia.
OUT: 0

###

Below, each entry is listed with its recorded solubility.
assay: Solubility in PBS AT pH 7.4 was determined after incubation at 25 degree C; type: physicochemical
Write the answer as a number in µg/mL, unit excluded.

# molecule, result_units, solubility
records = [
    ("CO[C@H]1O[C@@H]2O[C@@]3(C)CC[C@H]4[C@H](C)CC[C@@H]([C@H]1C)[C@@]24OO3", "µg/mL", 63.4),
]

Shift focus to the following entry.
IN: Given C[C@@H]1CC[C@H]2C(CN3CCN(CCO)CC3)=C(C(F)(F)F)O[C@@H]3OC4(C)CC[C@@H]1[C@]32OO4 (single isomer, unassigned) , state its recorded solubility.
OUT: 234

###

tested on: Mus musculus; test: In vivo effective dose was evaluated against Plasmodium berghei N by peroral administration in mice (Mus musculus); type: functional; conditions: po
measured_endpoint: ED90

A selection of reference data follows.
# molecule, ED90
rows = [
    ("CCNCC1=C(C(F)(F)F)O[C@@H]2O[C@]3(C)CCC4[C@H](C)CC[C@@H]1[C@]42OO3 (some centres undefined)", "< 10 mg/kg"),
    ("C[C@@H]1CC[C@H]2C(CN3CCN(CCO)CC3)=C(C(F)(F)F)O[C@@H]3OC4(C)CC[C@@H]1[C@]32OO4 (single isomer, unassigned)", "< 10 mg/kg"),
]

IN: Given C[C@H]1[C@H](OC(=O)CCC(=O)O)O[C@@H]2O[C@@]3(C)CC[C@H]4[C@H](C)CC[C@@H]1[C@@]24OO3 [ARTESUNATE] , state its recorded ED90.
OUT: 15.3 mg/kg

IN: Another molecule to check: C[C@@H]1CC[C@H]2C(CN3CCOCC3)=C(C(F)(F)F)O[C@@H]3OC4(C)CCC1[C@]32OO4 (single isomer, unassigned)
OUT: < 10 mg/kg

###

Below, each entry is listed with its recorded IC50.
tested on: Plasmodium falciparum; experiment: In vitro inhibitory concentration against chloroquine-resistant Plasmodium falciparum FcB1; type: functional, organism-based

A selection of reference data follows.
# molecule, target_or_system, result
records = [
    ("C[C@@H]1CC[C@H]2C(COCC(O)CO)=C(C(F)(F)F)O[C@@H]3OC4(C)CCC1[C@]32OO4 (single isomer, unassigned)", "Plasmodium falciparum", "3.7 nM"),
    ("C[C@@H]1CC[C@H]2C(CO)=C(C(F)(F)F)O[C@@H]3OC4(C)CCC1[C@]32OO4 (single isomer, unassigned)", "Plasmodium falciparum", "7.5 nM"),
]

IN: Given COCCOCC1=C(C(F)(F)F)O[C@@H]2OC3(C)CC[C@H]4[C@H](C)CC[C@@H]1[C@@]24OO3 (single isomer, unassigned) , state its recorded IC50.
OUT: 2.7 nM

###

assay: Oral bioavailability in rat (dose 10 mg/kg i.v. and 50 mg/kg p.o.); assay type: ADME, organism-based; details: in vivo
measured_endpoint: bioavailability (%)
Write the answer as a number in %, unit excluded.

# compound, result_units, quantitative_readout
rows = [
    ("C[C@@H]1CC[C@H]2C(CN3CCN(CCO)CC3)=C(C(F)(F)F)O[C@@H]3OC4(C)CC[C@@H]1[C@]32OO4 (single isomer, unassigned)", "%", 34.6),
]

IN: Given CO[C@H]1O[C@@H]2O[C@@]3(C)CC[C@H]4[C@H](C)CC[C@@H]([C@H]1C)[C@@]24OO3 , state its recorded bioavailability.
OUT: 1.4

###

assay: Volume of distribution following 10 mg/kg intravenous or 50 mg/kg oral dosing in rats was determined; format: ADME, organism-based; conditions: rat, in vivo; read-out: Activity
measured_endpoint: Vd

# compound, Vd
measured = [
    ("C[C@@H]1CC[C@H]2C(CN3CCN(CCO)CC3)=C(C(F)(F)F)O[C@@H]3OC4(C)CC[C@@H]1[C@]32OO4 (single isomer, unassigned)", "11.8 L/kg"),
]

Shift focus to the following entry.
IN: Given CO[C@H]1O[C@@H]2O[C@@]3(C)CC[C@H]4[C@H](C)CC[C@@H]([C@H]1C)[C@@]24OO3 , state its recorded Vd.
OUT: 8.4 L/kg

###

test system: Mus musculus; assay: In vivo antimalarial activity against Plasmodium berghei NK173 in mice (Mus musculus) by intraperitoneal route at a concentration of 35.5 uM/kg at day 4; assay type: functional
measured_endpoint: Parasitemia

A selection of reference data follows.
# compound, Parasitemia
measured = [
    ("COCCOCC1=C(C(F)(F)F)O[C@@H]2OC3(C)CC[C@H]4[C@H](C)CC[C@@H]1[C@@]24OO3 (single isomer, unassigned)", "6%"),
    ("CC1=CO[C@@H]2OC3(C)CC[C@H]4[C@H](C)CC[C@@H]1[C@@]24OO3 (single isomer, unassigned) [ANHYDRODIHYDROARTEMISININ]", "18%"),
    ("C[C@@H]1CC[C@H]2C(CN3CCOCC3)=C(C(F)(F)F)O[C@@H]3OC4(C)CCC1[C@]32OO4 (single isomer, unassigned)", "18%"),
    ("CO[C@H]1O[C@@H]2O[C@@]3(C)CC[C@H]4[C@H](C)CC[C@@H]([C@H]1C)[C@@]24OO3", "0%"),
    ("C[C@@H]1CC[C@H]2C(CO)=C(C(F)(F)F)O[C@@H]3OC4(C)CCC1[C@]32OO4 (single isomer, unassigned)", "40%"),
]

Shift focus to the following entry.
IN: Given CC1=C(C(F)(F)F)O[C@@H]2OC3(C)CC[C@H]4[C@H](C)CC[C@@H]1[C@@]24OO3 (single isomer, unassigned) , state its recorded Parasitemia.
OUT: 0%

###

assay: Partition coefficient between octanol and water (logP); type: physicochemical
measured_endpoint: logP
When you answer, write just the number.

IN: Given C[C@@H]1CC[C@H]2C(CN3CCN(CCO)CC3)=C(C(F)(F)F)O[C@@H]3OC4(C)CC[C@@H]1[C@]32OO4 (single isomer, unassigned) , state its recorded logP.
OUT: 3.52

###

Below, each entry is listed with its recorded Reduction.
test system: Mus musculus; experiment: Compound was evaluated for percentage reduction of parasitaemia at day 4 at a concentration of 10 mg/kg by peroral administration; assay type: functional; settings: route oral
Write the answer as a number in %, unit excluded.

A selection of reference data follows.
# molecule, result_units, Reduction
measured = [
    ("CCOCC1=C(C(F)(F)F)O[C@@H]2OC3(C)CC[C@H]4[C@H](C)CC[C@@H]1[C@@]24OO3 (single isomer, unassigned)", "%", 15.6),
    ("C[C@@H]1CC[C@H]2C(CN3CCN(CCO)CC3)=C(C(F)(F)F)O[C@@H]3OC4(C)CC[C@@H]1[C@]32OO4 (single isomer, unassigned)", "%", 100),
    ("C[C@@H]1CC[C@H]2C(CN3CCOCC3)=C(C(F)(F)F)O[C@@H]3OC4(C)CCC1[C@]32OO4 (single isomer, unassigned)", "%", 93.3),
]

IN: Given CCNCC1=C(C(F)(F)F)O[C@@H]2O[C@]3(C)CCC4[C@H](C)CC[C@@H]1[C@]42OO3 (some centres undefined) , state its recorded Reduction.
OUT: 96

###

Below, each entry is listed with its recorded ED90.
system: Mus musculus; assay: In vivo effective dose evaluated against Plasmodium berghei N by subcutaneous administration in mice (Mus musculus); assay type: functional; conditions: sc

IN: Given C[C@@H]1CC[C@H]2C(CN3CCOCC3)=C(C(F)(F)F)O[C@@H]3OC4(C)CCC1[C@]32OO4 (single isomer, unassigned) , state its recorded ED90.
OUT: < 10 mg/kg

IN: Another compound to check: C[C@@H]1CC[C@H]2C(CN3CCN(CCO)CC3)=C(C(F)(F)F)O[C@@H]3OC4(C)CC[C@@H]1[C@]32OO4 (single isomer, unassigned)
OUT: < 10 mg/kg

IN: Another compound to check: CCNCC1=C(C(F)(F)F)O[C@@H]2O[C@]3(C)CCC4[C@H](C)CC[C@@H]1[C@]42OO3 (stereo not given in full)
OUT: < 10 mg/kg

IN: Another compound to check: C[C@H]1[C@H](OC(=O)CCC(=O)O)O[C@@H]2O[C@@]3(C)CC[C@H]4[C@H](C)CC[C@@H]1[C@@]24OO3 [ARTESUNATE]
OUT: 10.5 mg/kg

IN: Another compound to check: CCOCC1=C(C(F)(F)F)O[C@@H]2OC3(C)CC[C@H]4[C@H](C)CC[C@@H]1[C@@]24OO3 (single isomer, unassigned)
OUT: < 10 mg/kg

Values were extracted from ChEMBL document CHEMBL1149097.
